- Tested on: SK-OV-3 ovarian
- experiment summary: NCI tumour cell line growth inhibition, 48 h
Here, each record is paired with measured GI50 data.

molecule | measured target | GI50
C[C@@]1(c2ncncc2F)NC(=O)c2cc(-c3cn[nH]c3)ccc21 | SK-OV-3 ovarian | 18.5 µM
CCOC(=O)c1c(C)n(CC(C)C)c2c1cc1oc(=O)c(=O)n3cnc2c13 | SK-OV-3 ovarian | 20.4 µM
O=C(c1ccco1)c1c(C(F)(F)F)nc2cc(C(F)(F)F)ccc2[n+]1[O-] | SK-OV-3 ovarian | 20.3 µM
N=C(N)c1ccc(-c2ccc(-c3ccc(Cl)cn3)s2)cc1 | SK-OV-3 ovarian | 1.83 µM
COC(=O)[C@@H](Cc1c[nH]c2ccccc12)NC(=O)/C=C/c1ccccc1 | SK-OV-3 ovarian | 3.15 µM
COC(=O)c1c2c(c(C)[n+]([O-])c1C)C(=O)C(NCc1cccc(OC)c1)=CC2=O | SK-OV-3 ovarian | 3.53 µM
COc1cc2nc(-c3ccc(-n4cncc4-c4ccc(N)cc4)cc3)sc2c(OC)c1OC | SK-OV-3 ovarian | 11.7 µM
CC(C)=CCC/C(C)=C/CC/C(=C/COP(=O)(OCc1ccc([N+](=O)[O-])o1)N(C)CCCCCl)CC=C(C)C (stereo not given) | SK-OV-3 ovarian | 18.2 µM
CCOC(=O)N1C/C(=C/c2ccc(OC)cc2)C(=O)/C(=C/c2ccc(OC)cc2)C1 | SK-OV-3 ovarian | 3.63 µM
Oc1ccc(/C=N/Nc2nc3ccccc3s2)c(O)c1 | SK-OV-3 ovarian | 2.14 µM

----------
Here, each record is paired with measured TGI data.
- System: 786-0 renal
- experiment summary: NCI tumour cell line growth inhibition, 48 h

compound | TGI
c1ccc2cc(OCC3CO3)c(OCC3CO3)cc2c1 (stereo unspecified) | 12.9 µM
Cn1cnc([N+](=O)[O-])c1SCC(=O)O | > 100 µM
O=C(NCCCNC(=O)OCc1ccc2c(Br)cc(Br)c(O)c2n1)OCc1ccc2c(Br)cc(Br)c(O)c2n1 | > 100 µM
CCOC(=O)CC1=NC(=Nc2cc(Cl)ccc2Cl)SC1 | > 100 µM
COC(=O)[C@H]1C=C[C@@H](C)n2c(=O)c3ccccc3c(=O)n21 | > 100 µM
CC(=O)NCC1(c2ccccc2)CCN(CC2COc3ccccc3O2)CC1 (stereo unspecified) | > 100 µM
COc1ccc2nc3cc([N+](=O)[O-])ccc3c(NNc3ccc(Cl)cc3)c2c1 | 53.6 µM
c1ccc2c[n+](CCCCCCCCCC[n+]3ccc4ccccc4c3)ccc2c1 | > 10 µM
COc1cc2ccc1-c1cc(ccc1O)CC1c3cc4c(cc3CCN1C)Oc1c(OC)cc3c(c1O4)C(C2)N(C)CC3 (stereo unspecified) | 3.15 µM
CCN(Cc1nc2cc(C(F)(F)F)ccc2nc1-c1ccccc1)c1ccc(OC)c(OC)c1 | 30.3 µM
COc1ccc2c(c1OC)-c1c(c3ccc([N+](=O)[O-])cc3c(=O)n1CCCN=[N+]=[N-])C2=O | 15.8 µM
COc1ccc(C2CC(=O)Oc3ccccc3O2)cc1 (stereo unspecified) | > 100 µM
COc1ccc(-c2onc(-c3c(C)cc(C)cc3C)c2C2=NCCCN2)cc1 | > 100 µM
COc1ccc(/C=C/c2nc(=S)[nH][nH]2)cc1 | > 100 µM
CC(C)CNc1nc(N)[nH]c(=O)c1NC=O | > 100 µM
C[C@@]1(c2ncncc2F)NC(=O)c2cc(-c3cn[nH]c3)ccc21 | 91.1 µM
COc1ccc(-n2c3c(c4cc(O)ccc42)C(=O)c2ccccc2C3=O)cc1 | 11.5 µM
CCOC(=O)c1c2c(c(O)c3ccccc3c(O)n(-c3ccc(C)cc3)c1C)C(=O)C=CC2=O | 33.5 µM
O=C1/C(=C/c2ccc([N+](=O)[O-])s2)Oc2ccccc21 | 6.29 µM
COc1cc(C2CC(c3ccc4c(c3)OCO4)=NN2C(C)=O)cc(OC)c1OC (stereo unspecified) | > 100 µM
C[C@]12CC(c3ccccc3O1)C(C#N)C(=O)N2 (stereo partly specified) | > 100 µM
COc1ccc(OC)c(NC(=O)C(=O)Nn2c(=S)[nH]c3ccccc3c2=O)c1 | > 100 µM
CCCCN(CCCC)CC(C)(C)C(O)c1ccc(OC)c2ccccc12 (stereo unspecified) | 28 µM
CCCCCC(=O)OCC(=O)O[C@@H]1C[C@]2(C(C)C)O[C@@]1(C)[C@@H]1CC[C@@H](C)[C@H]1[C@@H]2OC(=O)/C=C/c1ccccc1 | 13.6 µM
Cc1cnc2[nH]c(-c3ccc(F)cc3)cc(=O)c2c1 | > 100 µM
COc1cccc(/C(C=O)=C(\Cl)c2ccc(OC)c(OC)c2)c1 | 30.7 µM
O=C(CSCC(=O)N/N=C/c1cccc(OCc2ccccc2)c1)N/N=C/c1cccc(OCc2ccccc2)c1 | > 100 µM
COc1cc2c(cc1OC)C1C(O)C(OC)C=C3CC[N+](C)(C2)C31 (stereo unspecified) | > 100 µM
COC(=O)[C@@H](Cc1c[nH]c2ccccc12)NC(=O)/C=C/c1ccccc1 | > 100 µM
COc1cc2nc(-c3ccc(-n4cncc4-c4ccc(N)cc4)cc3)sc2c(OC)c1OC | > 100 µM
O=C(O)c1ccc(S(=O)(=O)N=Nc2c(O)[nH]c3ccccc23)cc1 | > 100 µM
